B1: TRAF3IP2 (parent)
chain: FMEKRNQWLVSQLSAASPDTGHDS

# Variants of: B1
# PROCEDURE DETAILS: protein stability index of a GFP-peptide fusion (GPS, HEK-293T) (PSI 1-6); higher = more stable;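 further: lentivirally expressed fusions sorted by FACS into six bins by GFP to DsRed ratio, PSI derived from sequencing read proportions per bin multiplied by bin number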
# TEST CONTEXT: c terminus: a fixed tail appended
Listed next: entries and their corresponding protein stability index.
Form rule: numeric answer, no unit written next to it.

E3Y :: 3.02

Prompt line: Dear colleague, please send me the reported protein stability index for `L9F` when you can.
Response line: 2.73

Prompt line: Dear colleague, please send me the reported protein stability index for `M2L` when you can.
Response line: 2.46

Prompt line: Dear colleague, please send me the reported protein stability index for `H22W` when you can.
Response line: 2.05

Prompt line: Dear colleague, please send me the reported protein stability index for `R5H` when you can.
Response line: 2.62

Prompt line: Dear colleague, please send me the reported protein stability index for `A15G` when you can.
Response line: 2.71

Prompt line: Dear colleague, please send me the reported protein stability index for `A16Q` when you can.
Response line: 2.6

Prompt line: Dear colleague, please send me the reported protein stability index for `Q7H` when you can.
Response line: 2.26

Prompt line: Dear colleague, please send me the reported protein stability index for `D23P` when you can.
Response line: 2.21

Prompt line: Dear colleague, please send me the reported protein stability index for `D23H` when you can.
Response line: 2.47

Prompt line: Dear colleague, please send me the reported protein stability index for `E3M` when you can.
Response line: 2.28

Prompt line: Dear colleague, please send me the reported protein stability index for `L13G` when you can.
Response line: 2.47

Prompt line: Dear colleague, please send me the reported protein stability index for `S11Y` when you can.
Response line: 2.64

Prompt line: Dear colleague, please send me the reported protein stability index for `S17T` when you can.
Response line: 3.03

Prompt line: Dear colleague, please send me the reported protein stability index for `M2C` when you can.
Response line: 2.94

Prompt line: Dear colleague, please send me the reported protein stability index for `L13W` when you can.
Response line: 2.45

Prompt line: Dear colleague, please send me the reported protein stability index for `P18N` when you can.
Response line: 2.5

Prompt line: Dear colleague, please send me the reported protein stability index for `F1H` when you can.
Response line: 4.84
